target: T1, wild-type human PTHR (human, UniProt Q03431 27-593)
T1 construct: whole, on cells; also called PTHR-WT; intact PTHR
T1 sequence (looked up): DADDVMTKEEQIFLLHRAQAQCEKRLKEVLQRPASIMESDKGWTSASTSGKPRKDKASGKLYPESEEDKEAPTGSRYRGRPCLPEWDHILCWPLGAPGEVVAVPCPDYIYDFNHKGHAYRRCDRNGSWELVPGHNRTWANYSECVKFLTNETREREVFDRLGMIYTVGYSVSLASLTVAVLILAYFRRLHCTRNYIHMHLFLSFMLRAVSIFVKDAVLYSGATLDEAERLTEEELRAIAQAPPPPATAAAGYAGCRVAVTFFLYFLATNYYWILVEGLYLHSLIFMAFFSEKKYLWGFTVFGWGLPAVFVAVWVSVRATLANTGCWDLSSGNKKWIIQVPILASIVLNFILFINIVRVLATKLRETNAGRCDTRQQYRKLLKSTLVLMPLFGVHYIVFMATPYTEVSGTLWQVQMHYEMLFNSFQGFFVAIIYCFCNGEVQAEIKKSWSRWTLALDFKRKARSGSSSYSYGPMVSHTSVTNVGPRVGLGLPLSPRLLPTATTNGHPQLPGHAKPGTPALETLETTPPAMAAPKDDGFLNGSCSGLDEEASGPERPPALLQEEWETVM
test.name: competition binding, HKRK-B7 cells, 125I-PTH(1-34) tracer
Where no end group is shown, it is not given here.
property: pIC50
When answering, recall that pIC50 equals minus log10 of the concentration in mol/L, and write that number alone.

SVSEIQLMHNLGKHLNSMRRVAWLRKKLQDV-NH2 [PTH(1-31)NH2 Glu^19,22→Arg,Ala] ... 7.27

Now, please, on to the next binder.
Prompt: Could you share which pIC50 value was measured for SVSEIQLMHNLGKHLNSAERVEWLRKKLQDV-NH2 [PTH(1-31)NH2 Met^18→Ala] ?
Completion: 7.04

Where do these numbers come from? They come from patent US20100081612A1.
